compounds and their reported inhibition
# experimental_system: Alpha-glucosidase (Saccharomyces cerevisiae S288c) (UniProt P53341+P38158+P07265)
# measurement_notes: Inhibition of yeast Alpha-glucosidase using p-nitrophenyl glycoside as substrate assessed as p-nitrophenol release at 1000 uM by spectrometric analysis relative to control
# Type: protein assay
The answer consists of two parts: a number and, after it, its unit.

INSERT INTO measurements (compound, result) VALUES
  ('O[C@@H]1[C@@H]2[C@@H](O)CCCN2C[C@@H]1O', '0%'),
  ('O[C@@H]1[C@@H]2[C@H](O)CCCN2C[C@@H]1O', '3.4%'),
  ('O[C@H]1[C@H]2[C@@H](O)CCCN2C[C@H]1O', '0%'),
  ('O[C@H]1[C@H]2[C@H](O)CC(F)(F)CN2C[C@H]1O', '0%'),
  ('O[C@H]1[C@H]2[C@H](O)C[C@@H](F)CN2C[C@H]1O', '2.2%');

Fill in the blank: the reported inhibition of `O[C@@H]1[C@@H]2[C@@H](O)CC(F)(F)CN2C[C@@H]1O` is ____.
0%

Fill in the blank: the reported inhibition of `O[C@@H]1[C@@H]2[C@@H](O)C[C@@H](F)CN2C[C@@H]1O` is ____.
6.2%

Fill in the blank: the reported inhibition of `O[C@H]1[C@H]2[C@@H](O)C[C@@H](F)CN2C[C@H]1O` is ____.
6.2%

* * *

# Organism: Bos taurus
# measurement_notes: Inhibition of bovine liver beta-galactosidase using p-nitrophenyl glycoside as substrate assessed as release of p-nitrophenol at 1000 uM by spectrometric analysis relative to control
compounds and their reported inhibition
Reply with just the number (in %).

Answered cases to consult:
INSERT INTO measurements (smiles_entry, property_label, unit_of_measurement, recorded_number) VALUES
  ('O[C@H]1[C@H]2[C@H](O)C[C@H](F)CN2C[C@H]1O', 'inhibition', '%', 0),
  ('O[C@H]1[C@H]2[C@@H](O)C[C@H](F)CN2C[C@H]1O', 'inhibition', '%', 0),
  ('O[C@@H]1[C@@H]2[C@@H](O)C[C@@H](F)CN2C[C@@H]1O', 'inhibition', '%', 21.7),
  ('O[C@@H]1[C@@H]2[C@H](O)C[C@@H](F)CN2C[C@@H]1O', 'inhibition', '%', 15),
  ('O[C@@H]1[C@@H]2[C@@H](O)C[C@H](F)CN2C[C@@H]1O', 'inhibition', '%', 11.7),
  ('O[C@H]1[C@H]2[C@@H](O)CCCN2C[C@H]1O', 'inhibition', '%', 0.8);

Fill in the blank: the reported inhibition of `O[C@@H]1[C@@H]2[C@H](O)CCCN2C[C@@H]1O` is ____.
0

Fill in the blank: the reported inhibition of `O[C@H]1[C@H]2[C@H](O)C[C@@H](F)CN2C[C@H]1O` is ____.
0.8

Fill in the blank: the reported inhibition of `O[C@H]1[C@H]2[C@@H](O)CC(F)(F)CN2C[C@H]1O` is ____.
0

Fill in the blank: the reported inhibition of `O[C@@H]1[C@@H]2[C@H](O)CC(F)(F)CN2C[C@@H]1O` is ____.
0.8

Fill in the blank: the reported inhibition of `O[C@H]1[C@H]2[C@H](O)CC(F)(F)CN2C[C@H]1O` is ____.
13.3

* * *

# Species on record: Bos taurus
# measurement_notes: Inhibition of bovine liver beta-galactosidase using p-nitrophenyl glycoside as substrate assessed as release of p-nitrophenol at 1000 uM by spectrometric analysis relative to control
molecules and their reported inhibition
Reply with just the number (in %).

INSERT INTO measurements (smiles_entry, property_label, unit_of_measurement, recorded_number) VALUES
  ('O[C@@H]1[C@@H]2[C@H](O)C[C@H](F)CN2C[C@@H]1O', 'inhibition', '%', 41.7),
  ('O[C@H]1[C@H]2[C@H](O)CCCN2C[C@H]1O', 'inhibition', '%', 5.8),
  ('O[C@@H]1[C@@H]2[C@@H](O)CCCN2C[C@@H]1O', 'inhibition', '%', 48.3);

Continue with the molecule presented below.
Fill in the blank: the reported inhibition of `O[C@H]1[C@H]2[C@@H](O)C[C@@H](F)CN2C[C@H]1O` is ____.
29.2

* * *

# Tested on: Penicillium decumbens
# measurement_notes: Inhibition of Penicillium decumbens alpha-L-rhamnosidase using p-nitrophenyl glycoside as substrate assessed as release of p-nitrophenol at 1000 uM by spectrometric analysis relative to control
molecules and their reported inhibition
The answer consists of two parts: a number and, after it, its unit.

INSERT INTO assay_data (molecule, result) VALUES
  ('O[C@H]1[C@H]2[C@H](O)C[C@@H](F)CN2C[C@H]1O', '8.3%'),
  ('O[C@H]1[C@H]2[C@@H](O)CC(F)(F)CN2C[C@H]1O', '144%');

Continue with the molecule presented below.
Fill in the blank: the reported inhibition of `O[C@@H]1[C@@H]2[C@H](O)CC(F)(F)CN2C[C@@H]1O` is ____.
63%

* * *

# Species on record: Rattus norvegicus
# measurement_notes: Inhibition of rat intestinal Alpha-glucosidase using p-nitrophenyl glycoside as substrate assessed as p-nitrophenol release at 1000 uM by spectrometric analysis relative to control
compounds and their reported inhibition
Reply with just the number (in %).

Answered cases to consult:
INSERT INTO measurements (smiles_entry, property_label, recorded_number) VALUES
  ('O[C@H]1[C@H]2[C@@H](O)C[C@H](F)CN2C[C@H]1O', 'inhibition', 0),
  ('O[C@@H]1[C@@H]2[C@@H](O)CCCN2C[C@@H]1O', 'inhibition', 26.5),
  ('O[C@@H]1[C@@H]2[C@@H](O)C[C@@H](F)CN2C[C@@H]1O', 'inhibition', 47.3);

Continue with the compound presented below.
Fill in the blank: the reported inhibition of `O[C@@H]1[C@@H]2[C@@H](O)CC(F)(F)CN2C[C@@H]1O` is ____.
0

* * *

# Species: Bos taurus
# measurement_notes: Inhibition of bovine liver beta-glucuronidase using p-nitrophenyl glycoside as substrate assessed as release of p-nitrophenol at 1000 uM by spectrometric analysis relative to control
compounds and their reported inhibition
Reply with just the number (in %).

INSERT INTO results (smiles_entry, property_label, recorded_number) VALUES
  ('O[C@@H]1[C@@H]2[C@H](O)CCCN2C[C@@H]1O', 'inhibition', 8.8);

Fill in the blank: the reported inhibition of `O[C@@H]1[C@@H]2[C@H](O)C[C@@H](F)CN2C[C@@H]1O` is ____.
0.1

Fill in the blank: the reported inhibition of `O[C@H]1[C@H]2[C@H](O)C[C@@H](F)CN2C[C@H]1O` is ____.
2.6

Fill in the blank: the reported inhibition of `O[C@H]1[C@H]2[C@@H](O)C[C@@H](F)CN2C[C@H]1O` is ____.
15.1

Fill in the blank: the reported inhibition of `O[C@@H]1[C@@H]2[C@@H](O)CCCN2C[C@@H]1O` is ____.
0

Fill in the blank: the reported inhibition of `O[C@@H]1[C@@H]2[C@@H](O)C[C@H](F)CN2C[C@@H]1O` is ____.
12.5

Fill in the blank: the reported inhibition of `O[C@@H]1[C@@H]2[C@H](O)CC(F)(F)CN2C[C@@H]1O` is ____.
18.8

* * *

compounds and their reported inhibition
# Tested on: Escherichia coli
# measurement_notes: Inhibition of Escherichia coli beta-glucuronidase using p-nitrophenyl glycoside as substrate assessed as release of p-nitrophenol at 1000 uM by spectrometric analysis relative to control
Reply with just the number (in %).

Answered cases to consult:
INSERT INTO assay_data (smiles_entry, unit_of_measurement, recorded_number) VALUES
  ('O[C@H]1[C@H]2[C@@H](O)CCCN2C[C@H]1O', '%', 0),
  ('O[C@@H]1[C@@H]2[C@@H](O)C[C@@H](F)CN2C[C@@H]1O', '%', 9.3),
  ('O[C@@H]1[C@@H]2[C@H](O)C[C@H](F)CN2C[C@@H]1O', '%', 28.9),
  ('O[C@@H]1[C@@H]2[C@@H](O)CC(F)(F)CN2C[C@@H]1O', '%', 0),
  ('O[C@@H]1[C@@H]2[C@H](O)C[C@@H](F)CN2C[C@@H]1O', '%', 0);

Continue with the compound presented below.
Fill in the blank: the reported inhibition of `O[C@H]1[C@H]2[C@@H](O)CC(F)(F)CN2C[C@H]1O` is ____.
0

* * *

molecules and their reported inhibition
# experimental_system: Alpha-glucosidase (Saccharomyces cerevisiae S288c) (UniProt P53341+P38158+P07265)
# measurement_notes: Inhibition of yeast Alpha-glucosidase using p-nitrophenyl glycoside as substrate assessed as p-nitrophenol release at 1000 uM by spectrometric analysis relative to control
# Format: protein assay
Reply with just the number (in %).

Answered cases to consult:
INSERT INTO assay_data (smiles_entry, recorded_number) VALUES
  ('O[C@H]1[C@H]2[C@@H](O)C[C@H](F)CN2C[C@H]1O', 3.4),
  ('O[C@H]1[C@H]2[C@@H](O)CC(F)(F)CN2C[C@H]1O', 1.1),
  ('O[C@@H]1[C@@H]2[C@@H](O)C[C@H](F)CN2C[C@@H]1O', 4.5),
  ('O[C@@H]1[C@@H]2[C@H](O)C[C@@H](F)CN2C[C@@H]1O', 4.5);

Fill in the blank: the reported inhibition of `O[C@@H]1[C@@H]2[C@H](O)C[C@H](F)CN2C[C@@H]1O` is ____.
18
